meta.source: paper PMC10490123

Biological target: CDK2 (Homo sapiens, UniProt P24941)
observable: IC50 (nM)
Response body: numeric value in nM, unit text excluded.

Req: Bench note: what IC50 did COc1ccc(-c2nn(-c3ccccc3)c3nc(-c4ccccc4)c(C#N)c(-c4ccc(O)cc4)c23)cc1 [Compound 14g] show?
Resp: 460

* * *

Each entry below carries its recorded pIC50.
Test: MTT cytotoxicity on normal cell line WI-38
Format: cell-based
Conditions: human, WI-38 normal cells, MTT assay, mean ± SD of three experiments, read-out: In Vitro Cytotoxicity on WI-38 (IC50)
Convention used: pIC50 is expressed as -log10 of the molar concentration.

Sample answers from the record:
compound="COc1cccc2c1C(=O)c1c(O)c3c(c(O)c1C2=O)C[C@@](O)(C(=O)CO)C[C@@H]3O[C@H]1C[C@H](N)[C@H](O)[C@H](C)O1 [Doxorubicin, reference compound]" readoutvalue=4.81
compound=COc1ccc(-c2nn(-c3ccccc3)c3nccc(-c4ccccc4)c23)cc1 readoutvalue=4.58

Req: Bench note: what pIC50 did COc1ccc(-c2nn(-c3ccccc3)c3nc(-c4ccccc4)c(C#N)c(-c4ccc(O)cc4)c23)cc1 [Compound 14g] show?
Resp: 4.66
